Provide the reported pIC50 of each item.
# System: PANC-03-27
# Experiment notes: cells
# Type: functional, cell-based, Homo sapiens
# Measurement context: Homo sapiens, PANC-03-27
# Description: SANGER: Inhibition of human PANC-03-27 cell growth in a cell viability assay.
pIC50: −log10 of the molar value.

Below is a list of compounds. For each, state its recorded pIC50.
1. CCOc1nc(NC(=O)Cc2cc(OC)ccc2OC)cc(N)c1C#N
2. COc1cc([C@@H]2c3cc4c(cc3[C@@H](O[C@@H]3O[C@@H]5CO[C@@H](C)O[C@H]5[C@H](O)[C@H]3O)[C@H]3COC(=O)[C@H]23)OCO4)cc(OC)c1O [ETOPOSIDE]
3. CN(Cc1cnc2nc(N)nc(N)c2n1)c1ccc(C(=O)N[C@@H](CCC(=O)O)C(=O)O)cc1 [METHOTREXATE]
4. CN(C)C/C=C/C(=O)Nc1cc2c(Nc3ccc(F)c(Cl)c3)ncnc2cc1O[C@H]1CCOC1
5. O=C1N=C(NCc2cccs2)S/C1=C\c1ccc2ncccc2c1

Reply:
1. < 5.00
2. 5.79
3. < 6.70
4. < 6.30
5. < 5.30

Query: For COc1ccc(C2=N[C@@H](c3ccc(Cl)cc3)[C@@H](c3ccc(Cl)cc3)N2C(=O)N2CCNC(=O)C2)c(OC(C)C)c1 , what is its reported pIC50?
Reply: < 5.10

* * *

# Test system: A204;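 further: growth inhibition of human A204 cells, read out with a cell viability assay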
# Experiment notes: cells
# Format: functional, cell-based, Homo sapiens
# Measurement context: a204
# Description: SANGER: Inhibition of human A204 cell growth in a cell viability assay.
Readout: IC50 (nM)
Answers are plain numbers, in nM.

Query: Which IC50 is reported for this compound? Cc1cc([C@@H](C)Nc2ccccc2C(=O)O)c2nc(N3CCOCC3)cc(=O)n2c1
Reply: 2770

* * *

Kindly supply the reported IC50 values for the records listed here.
# Tested on: DOK;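 further: cell viability assay read-out, values reflect inhibition of cell growth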
# Experiment notes: cells
# Assay type: functional, cell-based, Homo sapiens
# Measurement context: Homo sapiens, DOK
# Description: SANGER: Inhibition of human DOK cell growth in a cell viability assay.

The following compounds have reported results that may help.
[
  {
    "Compound": "CCC1=C[C@@H]2CN(C1)Cc1c([nH]c3ccccc13)[C@@](C(=O)OC)(c1cc3c(cc1OC)N(C)[C@H]1[C@@](O)(C(=O)OC)[C@H](OC(C)=O)[C@]4(CC)C=CCN5CC[C@]31[C@@H]54)C2",
    "IC50": "> 64 nM"
  },
  {
    "Compound": "CC(=O)O[C@@]12CO[C@@H]1C[C@H](O)[C@@]1(C)C(=O)[C@H](O)C3=C(C)[C@@H](OC(=O)[C@H](O)[C@@H](NC(=O)OC(C)(C)C)c4ccccc4)C[C@@](O)([C@@H](OC(=O)c4ccccc4)[C@H]21)C3(C)C",
    "IC50": "2.94 nM"
  },
  {
    "Compound": "O=C(c1cc(Cc2n[nH]c(=O)c3ccccc23)ccc1F)N1CCN(C(=O)C2CC2)CC1",
    "IC50": "> 5000 nM"
  },
  {
    "Compound": "CN(C)C/C=C/C(=O)Nc1cc2c(Nc3ccc(F)c(Cl)c3)ncnc2cc1O[C@H]1CCOC1",
    "IC50": "31.9 nM"
  },
  {
    "Compound": "Cn1cncc1[C@@](N)(c1ccc(Cl)cc1)c1ccc2c(c1)c(-c1cccc(Cl)c1)cc(=O)n2C",
    "IC50": "> 16000 nM"
  }
]

Hi! Can you tell me IC50 for each of these compounds?
1. C=CCNC1=C2C[C@@H](C)C[C@H](OC)[C@H](O)[C@@H](C)/C=C(\C)[C@H](OC(N)=O)[C@@H](OC)/C=C\C=C(/C)C(=O)NC(=CC1=O)C2=O
2. COc1cc(F)c(F)c(Nc2ccc(I)cc2F)c1NS(=O)(=O)C1(CC(O)CO)CC1 (stereo not drawn)
3. COc1ccc(C2=N[C@@H](c3ccc(Cl)cc3)[C@@H](c3ccc(Cl)cc3)N2C(=O)N2CCNC(=O)C2)c(OC(C)C)c1

Reply:
1. 49 nM
2. 432 nM
3. > 8000 nM
